molecular target: Porcine Ventricle myofibrils (left ventricle of Yucatan minipigs) (Sus scrofa); construct: Myofibrils from porcine cardiac muscle was isolated from the left ventricle of Yucatan minipigs; tissue Exemplar Genetics; host or cells: left ventricle of Yucatan minipigs; test: Myofibril ATPase assay (PK/LDH NADH-coupled), ventricle myofibrils; assay type: biochemical; details: Table 7
Sequence (P79293 whole entry): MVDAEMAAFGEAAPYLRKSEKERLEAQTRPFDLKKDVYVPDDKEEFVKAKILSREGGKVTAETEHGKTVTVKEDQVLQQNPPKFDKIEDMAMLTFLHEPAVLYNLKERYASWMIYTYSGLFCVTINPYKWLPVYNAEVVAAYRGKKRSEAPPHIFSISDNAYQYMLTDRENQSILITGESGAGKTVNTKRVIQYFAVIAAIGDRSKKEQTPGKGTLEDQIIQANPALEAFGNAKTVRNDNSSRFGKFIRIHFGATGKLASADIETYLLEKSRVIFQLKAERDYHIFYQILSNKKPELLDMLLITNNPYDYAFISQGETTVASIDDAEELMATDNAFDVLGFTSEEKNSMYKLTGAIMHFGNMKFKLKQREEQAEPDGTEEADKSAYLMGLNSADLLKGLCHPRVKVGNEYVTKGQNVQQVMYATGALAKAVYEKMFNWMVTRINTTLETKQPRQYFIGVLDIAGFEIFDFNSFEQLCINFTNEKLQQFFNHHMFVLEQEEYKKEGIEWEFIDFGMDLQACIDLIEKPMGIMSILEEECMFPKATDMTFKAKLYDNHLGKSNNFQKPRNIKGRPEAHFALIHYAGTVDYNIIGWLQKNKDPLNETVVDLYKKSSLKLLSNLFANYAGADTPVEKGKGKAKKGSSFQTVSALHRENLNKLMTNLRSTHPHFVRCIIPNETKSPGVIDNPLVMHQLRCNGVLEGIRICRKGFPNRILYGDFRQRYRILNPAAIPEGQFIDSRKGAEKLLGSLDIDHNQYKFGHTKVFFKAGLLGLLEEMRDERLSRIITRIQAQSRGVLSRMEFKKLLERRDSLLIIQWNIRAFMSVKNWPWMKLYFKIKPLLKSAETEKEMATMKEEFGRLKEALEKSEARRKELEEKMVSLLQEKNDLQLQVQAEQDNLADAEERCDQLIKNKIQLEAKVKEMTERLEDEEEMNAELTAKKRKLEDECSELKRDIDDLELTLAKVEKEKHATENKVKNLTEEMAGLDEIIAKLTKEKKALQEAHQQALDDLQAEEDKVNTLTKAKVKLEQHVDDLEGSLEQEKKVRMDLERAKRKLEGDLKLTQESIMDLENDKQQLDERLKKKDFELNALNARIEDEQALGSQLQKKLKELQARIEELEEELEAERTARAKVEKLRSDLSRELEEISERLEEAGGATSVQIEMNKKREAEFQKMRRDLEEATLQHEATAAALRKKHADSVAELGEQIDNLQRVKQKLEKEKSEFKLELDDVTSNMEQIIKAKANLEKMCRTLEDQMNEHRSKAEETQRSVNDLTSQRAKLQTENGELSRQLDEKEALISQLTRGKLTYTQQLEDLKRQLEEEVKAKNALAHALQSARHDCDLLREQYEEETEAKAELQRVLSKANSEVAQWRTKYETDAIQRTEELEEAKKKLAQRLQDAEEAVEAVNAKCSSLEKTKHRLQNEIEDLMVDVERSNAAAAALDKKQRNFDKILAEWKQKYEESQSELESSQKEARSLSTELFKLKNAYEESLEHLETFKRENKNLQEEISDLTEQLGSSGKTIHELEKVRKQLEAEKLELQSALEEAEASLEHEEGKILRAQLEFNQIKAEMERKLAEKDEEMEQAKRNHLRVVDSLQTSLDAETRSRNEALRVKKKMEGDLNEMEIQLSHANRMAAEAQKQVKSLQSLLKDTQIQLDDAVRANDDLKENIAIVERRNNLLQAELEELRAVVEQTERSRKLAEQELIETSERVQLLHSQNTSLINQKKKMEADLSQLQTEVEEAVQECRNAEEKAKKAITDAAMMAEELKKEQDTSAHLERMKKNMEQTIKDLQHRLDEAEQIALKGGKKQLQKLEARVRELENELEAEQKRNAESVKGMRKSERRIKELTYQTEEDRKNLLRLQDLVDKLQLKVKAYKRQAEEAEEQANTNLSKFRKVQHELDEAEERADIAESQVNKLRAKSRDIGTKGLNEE
Could you please report measured Porcine Ventricle IC25 for the items listed next?
Give bare numbers, in µM.

Past entries and their recorded results:
COMPOUND: CCOc1nccc2c1CN(CC(=O)N[C@@H](C)c1ccc(F)cc1F)C(=O)N2 [Compound N121]
ENDPOINT NAME: Porcine Ventricle IC25
RECORDED RESULT: 5.985
//
COMPOUND: N#Cc1nccc2c1CN(CC(=O)N[C@H]1COc3cc(F)cc(F)c31)C(=O)N2 [Compound N8]
ENDPOINT NAME: Porcine Ventricle IC25
RECORDED RESULT: 13.21

Measured Porcine Ventricle IC25, O=C(CN1C(=O)Nc2cccnc2C12CC2)N[C@H](CO)c1ccc(F)cc1F [Compound N43] : 100

====

tested on: Rabbit Skeletal myofibrils (rabbit psoas muscle); assay: Myofibril ATPase assay (PK/LDH NADH-coupled), skeletal myofibrils; format: biochemical; settings: Table 7
Decision: Rabbit Psoas IC25 beneath 0.8 µM gives met; Rabbit Psoas IC25 meeting or exceeding 0.8 µM gives not met.

// below: answered compounds
CHEMICAL STRUCTURE: C[C@H](NC(=O)CN1C(=O)Nc2cccnc2C12CC2)c1ncc(F)cc1F
CATEGORY: not met
//
CHEMICAL STRUCTURE: C[C@H](NC(=O)CN1C(=O)Nc2cccnc2C12CC2)c1ccc(C#N)cn1
CATEGORY: not met
//
CHEMICAL STRUCTURE: N#Cc1nccc2c1CN(CC(=O)N[C@@H]1COc3cc(F)cc(F)c31)C(=O)N2
CATEGORY: met
//
CHEMICAL STRUCTURE: C[C@H](NC(=O)CN1Cc2c(C#N)cncc2NC1=O)c1ccc(F)cc1F
CATEGORY: met
//
CHEMICAL STRUCTURE: C[C@H](NC(=O)CN1Cc2cnccc2NC1=O)c1ccc(F)cc1F
CATEGORY: not met
//
CHEMICAL STRUCTURE: C[C@H](NC(=O)CN1Cc2nc(OC(F)(F)F)ccc2NC1=O)c1ccc(F)cc1F
CATEGORY: met
//
CHEMICAL STRUCTURE: C[C@H](NC(=O)[C@H](C)N1Cc2c(ccnc2Br)NC1=O)c1ccc(F)cc1F
CATEGORY: met
//
CHEMICAL STRUCTURE: C[C@@H](NC(=O)CN1Cc2nc(F)ccc2NC1=O)c1ncc(F)cc1F
CATEGORY: met
//
CHEMICAL STRUCTURE: C[C@H](NC(=O)[C@@H](C)N1Cc2ncccc2NC1=O)c1ccc(F)cc1F
CATEGORY: not met
//
CHEMICAL STRUCTURE: C[C@@H](NC(=O)CN1C(=O)Nc2ccc(C#N)nc2C12CC2)c1ccc(F)cc1F
CATEGORY: not met

[ask] Does the reported Rabbit Psoas IC25 of the following compound sit strictly below 0.8 µM? C[C@@H](NC(=O)CN1Cc2cc(Cl)cnc2NC1=O)c1ncc(F)cc1F
[reply] not met

[ask] Does the reported Rabbit Psoas IC25 of the following compound sit strictly below 0.8 µM? C[C@H](NC(=O)[C@H](Cc1ccccc1)N1Cc2nc(F)ccc2NC1=O)c1ccc(F)cc1F
[reply] not met

[ask] Does the reported Rabbit Psoas IC25 of the following compound sit strictly below 0.8 µM? C[C@@H](NC(=O)CN1Cc2c(F)cncc2NC1=O)c1ncc(F)cc1F
[reply] not met

[ask] Does the reported Rabbit Psoas IC25 of the following compound sit strictly below 0.8 µM? O=C(CN1Cc2c(ccnc2C(F)(F)F)NC1=O)N[C@H](CO)c1ncc(F)cc1F
[reply] not met
